# EXPERIMENT SUMMARY: Metabolic stability in human liver microsomes assessed as half life at 1 uM by LC/MS analysis
# Assay type: ADME, Microsome
# label = Yes if half-life at 1 µM >= 10 min else No

INSERT INTO assay_data (compound, class_assignment) VALUES
  ('COc1c(Cl)cc([C@@H]2c3cc4c(cc3C[C@H]3C(=O)NC(=O)N23)OCCO4)cc1Cl', 'Yes');

[ask] Does the reported half-life at 1 µM for `COc1c(Br)cc([C@@H]2c3cc4c(cc3C[C@H]3COC(=O)N32)OCCO4)cc1Br` fall at or above the 10 min mark?
[reply] No

[ask] # iterate: `COc1cc([C@@H]2c3cc4c(cc3C[C@H]3COC(=O)N32)OCCO4)cc(OC)c1OC`
[reply] No

[ask] # iterate: `COc1cc([C@@H]2c3cc4c(cc3C[C@H]3C(=O)NC(=O)N23)OCCO4)cc(OC)c1OC`
[reply] Yes

[ask] # iterate: `COc1c(Br)cc([C@@H]2c3cc4c(cc3C[C@H]3C(=O)NC(=O)N23)OCCO4)cc1Br`
[reply] Yes

* * *

Answer each item with its documented pIC50.
# System: MCF7
# EXPERIMENT SUMMARY: cells
# RECORDED CONDITIONS: Homo sapiens, MCF7, 72 h
# Description: Antiproliferative activity against human MCF7 cells measured after 72 hrs by MTT assay
One number for each entry, as −log10 of the molar value.

INSERT INTO measurements (molecule, measurement_type, quantitative_result) VALUES
  ('O=C1OC[C@@H]2Cc3cc4c(cc3[C@@H](c3cc(C(F)(F)F)cc(C(F)(F)F)c3)N12)OCCO4', 'pIC50', 7.00);

Report pIC50 for each item below.
1. COc1cc([C@@H]2c3cc4c(cc3C[C@H]3COC(=O)N32)OCCO4)ccc1F
2. COc1ccc(/C=C\c2cc(OC)c(OC)c(OC)c2)cc1O [COMBRETASTATIN A4]

[reply]
[6.43, 8.23]

Report pIC50 for each item below.
1. O=C1NC(=O)N2[C@H](c3cc(Cl)c(F)c(Cl)c3)c3cc4c(cc3C[C@@H]12)OCCO4
2. COc1cc([C@@H]2c3cc4c(cc3C[C@H]3COC(=O)N32)OCCCO4)cc(OC)c1OC

[reply]
1: 7.31; 2: 7.23

* * *

# Tested on: MCF7
# EXPERIMENT SUMMARY: cells
# RECORDED CONDITIONS: Homo sapiens, MCF7, 72 h
Answer each item with its documented IC50.
Give bare numbers, in nM.

Solved cases (5 shown):
INSERT INTO measurements (structure_smiles, units_label, quantitative_result) VALUES
  ('COc1cc([C@@H]2c3cc4c(cc3C[C@H]3C(=O)NC(=O)N23)OCCO4)cc(OC)c1OC', 'nM', 16.9),
  ('COc1cc([C@@H]2c3cc4c(cc3C[C@H]3COC(=O)N32)OCCO4)cc2c1OCO2', 'nM', 35.4),
  ('COc1c(Br)cc([C@@H]2c3cc4c(cc3C[C@H]3COC(=O)N32)OCCO4)cc1Br', 'nM', 4.3),
  ('COc1cc([C@@H]2c3cc4c(cc3C[C@H]3COC(=O)N32)OCCCO4)cc2c1OCO2', 'nM', 965),
  ('COc1c(Cl)cc([C@@H]2c3cc4c(cc3C[C@H]3COC(=O)N32)OCCO4)cc1Cl', 'nM', 5.9);

[ask] Please report the recorded IC50 for `COc1cc([C@@H]2c3cc4c(cc3C[C@H]3COC(=O)[C@@H]32)OCO4)cc(OC)c1OC` .
[reply] 6

Origin of the recorded values: ChEMBL document CHEMBL5236615
